Quick reference: electrical conductivity of the listed items.
- run_parameters: 353.15 K; 101.33 kPa; Liquid; Symmetrical Wheatstone bridge
Expressed in S/m, but write only the number.

Use the examples below as a reference point.
- compound: "CCCCn1cc[n+](C)c1.F[B-](F)(F)F [1-butyl-3-methylimidazolium tetrafluoroborate]"
  result_type: "electrical conductivity"
  unit: "S/m"
  observed: 2.3
- compound: "CCn1cc[n+](C)c1.O=S(=O)([N-]S(=O)(=O)C(F)(F)F)C(F)(F)F"
  result_type: "electrical conductivity"
  unit: "S/m"
  observed: 3.19
- compound: "CCn1cc[n+](C)c1.F[B-](F)(F)F [1-ethyl-3-methylimidazolium tetrafluoroborate]"
  result_type: "electrical conductivity"
  unit: "S/m"
  observed: 5.79

Now turn to the next compound.
Assign electrical conductivity to the following record: CCn1cc[n+](C)c1.N#CN=C=[N-] [1-ethyl-3-methylimidazolium dicyanamide]
8.51

====

- run_parameters: 303.15 K; 101.33 kPa; Liquid; Symmetrical Wheatstone bridge
The entries below are paired with their reported electrical conductivity.
# number only, unit S/m dropped from output

- compound: "CCCCn1cc[n+](C)c1.F[B-](F)(F)F [1-butyl-3-methylimidazolium tetrafluoroborate]"
  result_type: "electrical conductivity"
  observed: 0.454

Given the compound CCn1cc[n+](C)c1.O=S(=O)([N-]S(=O)(=O)C(F)(F)F)C(F)(F)F , write its reported electrical conductivity.
1.07

Using known records, supply electrical conductivity for CCn1cc[n+](C)c1.F[B-](F)(F)F [1-ethyl-3-methylimidazolium tetrafluoroborate]
1.85

For the compound CCn1cc[n+](C)c1.N#CN=C=[N-] [1-ethyl-3-methylimidazolium dicyanamide] , report electrical conductivity.
3.34

====

- run_parameters: 293.15 K; 101.33 kPa; Liquid; Capillary tube (Ostwald / Ubbelohde) method
// reported viscosity per item
Give the value in mPa·s but do not write mPa·s after it.

- compound: "CCn1cc[n+](C)c1.O=S(=O)([N-]S(=O)(=O)C(F)(F)F)C(F)(F)F"
  viscosity, mPa·s: 39.07
- compound: "CCn1cc[n+](C)c1.N#CN=C=[N-] [1-ethyl-3-methylimidazolium dicyanamide]"
  viscosity, mPa·s: 16.85

For the compound CCCCn1cc[n+](C)c1.F[B-](F)(F)F [1-butyl-3-methylimidazolium tetrafluoroborate] , report viscosity.
141.1

Provide viscosity value for the following compound: CCn1cc[n+](C)c1.F[B-](F)(F)F [1-ethyl-3-methylimidazolium tetrafluoroborate]
44.19

====

Listed compounds paired with reported electrical conductivity
- run_parameters: 323.15 K; 101.33 kPa; Liquid; Symmetrical Wheatstone bridge
Field: numeric (S/m). Do not append units.

// solved cases for electrical conductivity follow
- compound: "CCn1cc[n+](C)c1.N#CN=C=[N-] [1-ethyl-3-methylimidazolium dicyanamide]"
  electrical conductivity [S/m]: 5.19
- compound: "CCCCn1cc[n+](C)c1.F[B-](F)(F)F [1-butyl-3-methylimidazolium tetrafluoroborate]"
  electrical conductivity [S/m]: 0.994
- compound: "CCn1cc[n+](C)c1.F[B-](F)(F)F [1-ethyl-3-methylimidazolium tetrafluoroborate]"
  electrical conductivity [S/m]: 3.18

Moving on to another compound below.
Read the entry CCn1cc[n+](C)c1.O=S(=O)([N-]S(=O)(=O)C(F)(F)F)C(F)(F)F and write its reported electrical conductivity.
1.8

====

- run_parameters: 323.15 K; 101.33 kPa; Liquid; Vibrating tube method
The entries below are paired with their reported mass density.
Form entry: value (kg/m3) — number only.

Here's what some known entries look like.
- compound: "CCCCn1cc[n+](C)c1.F[B-](F)(F)F [1-butyl-3-methylimidazolium tetrafluoroborate]"
  mass density / kg/m3: 1184.5
- compound: "CCn1cc[n+](C)c1.F[B-](F)(F)F [1-ethyl-3-methylimidazolium tetrafluoroborate]"
  mass density / kg/m3: 1269.9
- compound: "CCn1cc[n+](C)c1.N#CN=C=[N-] [1-ethyl-3-methylimidazolium dicyanamide]"
  mass density / kg/m3: 1084.4

Please turn your attention to the following entry.
Give a short answer stating reported mass density for CCn1cc[n+](C)c1.O=S(=O)([N-]S(=O)(=O)C(F)(F)F)C(F)(F)F .
1494.3

====

- run_parameters: 333.15 K; 101.33 kPa; Liquid; Vibrating tube method
Recorded measurements of mass density, one per entry
Output spec: scalar in kg/m3, unitless text.

- compound: "CCn1cc[n+](C)c1.F[B-](F)(F)F [1-ethyl-3-methylimidazolium tetrafluoroborate]"
  result_type: "mass density"
  observed: 1262.4

Find the measured mass density of CCn1cc[n+](C)c1.O=S(=O)([N-]S(=O)(=O)C(F)(F)F)C(F)(F)F and report it.
1484.4

Identify mass density associated with the compound CCn1cc[n+](C)c1.N#CN=C=[N-] [1-ethyl-3-methylimidazolium dicyanamide]
1077.9

For CCCCn1cc[n+](C)c1.F[B-](F)(F)F [1-butyl-3-methylimidazolium tetrafluoroborate] , write its mass density.
1177.3

====

Quick reference for electrical conductivity among some molecules
- run_parameters: 288.15 K; 101.33 kPa; Liquid; Symmetrical Wheatstone bridge
Give just the numeric value; S/m need not be written.

Past entries and their recorded results:
- molecule: "CCn1cc[n+](C)c1.F[B-](F)(F)F [1-ethyl-3-methylimidazolium tetrafluoroborate]"
  electrical conductivity / S/m: 1.1
- molecule: "CCn1cc[n+](C)c1.N#CN=C=[N-] [1-ethyl-3-methylimidazolium dicyanamide]"
  electrical conductivity / S/m: 2.19
- molecule: "CCCCn1cc[n+](C)c1.F[B-](F)(F)F [1-butyl-3-methylimidazolium tetrafluoroborate]"
  electrical conductivity / S/m: 0.212

We next turn to a different molecule, shown below.
Supply reported electrical conductivity belonging to this molecule: CCn1cc[n+](C)c1.O=S(=O)([N-]S(=O)(=O)C(F)(F)F)C(F)(F)F
0.653

====

- run_parameters: 298.15 K; 101.33 kPa; Liquid; Capillary tube (Ostwald / Ubbelohde) method
result_type: viscosity (mPa·s)
Number only, in mPa·s; omit the unit.

- molecule: "CCCCn1cc[n+](C)c1.F[B-](F)(F)F [1-butyl-3-methylimidazolium tetrafluoroborate]"
  viscosity / mPa·s: 107.6
- molecule: "CCn1cc[n+](C)c1.F[B-](F)(F)F [1-ethyl-3-methylimidazolium tetrafluoroborate]"
  viscosity / mPa·s: 36.17

Tell me measured viscosity for CCn1cc[n+](C)c1.N#CN=C=[N-] [1-ethyl-3-methylimidazolium dicyanamide] please.
14.5

Given the molecule CCn1cc[n+](C)c1.O=S(=O)([N-]S(=O)(=O)C(F)(F)F)C(F)(F)F , write its reported viscosity.
32.46

====

- run_parameters: 323.15 K; 101.33 kPa; Liquid; Capillary tube (Ostwald / Ubbelohde) method
Reported viscosity values follow for various compounds
Unit mPa·s implied. Number only.

- compound: "CCCCn1cc[n+](C)c1.F[B-](F)(F)F [1-butyl-3-methylimidazolium tetrafluoroborate]"
  observed: 35.53
- compound: "CCn1cc[n+](C)c1.O=S(=O)([N-]S(=O)(=O)C(F)(F)F)C(F)(F)F"
  observed: 15.17
- compound: "CCn1cc[n+](C)c1.N#CN=C=[N-] [1-ethyl-3-methylimidazolium dicyanamide]"
  observed: 7.83

# input for lookup
Answer with reported viscosity of CCn1cc[n+](C)c1.F[B-](F)(F)F [1-ethyl-3-methylimidazolium tetrafluoroborate]
16.35
